- PROTOCOL DESCRIPTION: Formation of 1,5-cz-[Ln(Lig)] from Lig and Ln^III ions (metal dependent click-zip), MOPS/NaOH buffer pH 7.0, analytical HPLC (Charts 1, 2)
- CONDITION NOTES: Er^III; after 1 week at 80° C.; MOPS/NaOH buffer pH 7.0
Hi there, I'd appreciate the recorded conversion to 1,5-cz-[Ln(Lig)], Er^III for every entry that follows.

Worked cases, answers included:
{"columns": ["LINE NOTATION", "DATA VALUE"],
 "data": [
  ["[N-]=[N+]=NCc1cccc(CN2CCN(CC(=O)O)CCN(Cc3cccc(C#CC45CC6CC(CC(C6)C4)C5)n3)CCN(CC(=O)O)CC2)n1", "95%"],
  ["C#Cc1cccc(CN2CCN(CC(=O)O)CCN(Cc3cc(C(F)(F)F)cc(CN=[N+]=[N-])n3)CCN(CC(=O)O)CC2)n1", "93%"],
  ["[N-]=[N+]=NCc1cccc(CN2CCN(CC(=O)O)CCN(Cc3cccc(C#CC4CC4)n3)CCN(CC(=O)O)CC2)n1", "88%"],
  ["C#Cc1cccc(CN2CCN(CC(=O)O)CCN(Cc3cc(C(=O)OC(C)C)cc(CN=[N+]=[N-])n3)CCN(CC(=O)O)CC2)n1", "0%"]
]}

Consider the record given below.
Please report the measured conversion to 1,5-cz-[Ln(Lig)], Er^III for C#Cc1cccc(CN2CCN(CC(=O)O)CCN(Cc3cc(-c4ccccc4)cc(CN=[N+]=[N-])n3)CCN(CC(=O)O)CC2)n1
95%

----------
- PROTOCOL DESCRIPTION: Dissociation of chelates in aq. 1.0M HCl at 80° C. (acid decomplexation kinetic inertness) (Chart 18)
- Format: physicochemical
- CONDITION NOTES: 1 day
Hi there, I'd appreciate the recorded fraction of intact chelate for every entry that follows.
One number for each entry, in %.

Worked cases, answers included:
{"columns": ["COMPOUND", "DATA VALUE"],
 "data": [
  ["O=C1C[N@@]2CC[N@]3CC[N@@](CC[N@](CC2)Cc2cccc(n2)-c2cnnn2Cc2cc(-c4ccccc4)cc(n2)C3)CC(=O)[O][Nd][O]1 [TD868]", 0],
  ["O=P1(c2ccccc2)C[N@@]2CC[N@]3CC[N@@](CC[N@](CC2)Cc2cccc(n2)-c2cnnn2Cc2cccc(n2)C3)CP(=O)(c2ccccc2)[O][Gd][O]1 (stereo partly drawn) [TD925]", 82],
  ["O=C1C[N@@]2CC[N@]3CC[N@@](CC[N@](CC2)Cc2cccc(n2)-c2cnnn2Cc2cc(-c4ccccc4)cc(n2)C3)CC(=O)[O][Ho][O]1 [TD648]", 100],
  ["O=C1C[N@@]2CC[N@]3CC[N@@](CC[N@](CC2)Cc2cccc(n2)-c2cnnn2Cc2cc(-c4ccccc4)cc(n2)C3)CC(=O)[O][Er][O]1 [TD865]", 100],
  ["O=C([O-])CN1CCN2CCN(CC(=O)[O-])CCN(CC1)Cc1cccc(n1)-c1cnnn1Cc1cc(-c3ccccc3)cc(n1)C2.[Ca+2] [TD863]", 0]
]}

Provide reported fraction of intact chelate for each item, in the same order as listed.
1. O=C1C[N@@]2CC[N@]3CC[N@@](CC[N@](CC2)Cc2cccc(n2)-c2cnnn2Cc2cc(-c4ccccc4)cc(n2)C3)CC(=O)[O][Yb][O]1 [TD602]
2. O=C1C[N@@]2CC[N@]3CC[N@@](CC[N@](CC2)Cc2cccc(n2)-c2cn(nn2)Cc2cc(-c4ccccc4)cc(n2)C3)CC(=O)[O][Gd][O]1 [TD875]
3. O=C1C[N@@]2CC[N@]3CC[N@@](CC[N@](CC2)Cc2cccc(n2)-c2cnnn2Cc2cc(-c4ccccc4)cc(n2)C3)CC(=O)[O][Ce][O]1 [TD870]

1: 100; 2: 0; 3: 0

Provide reported fraction of intact chelate for each item, in the same order as listed.
1. O=C([O-])CN1CCN2CCN(CC(=O)[O-])CCN(CC1)Cc1cccc(n1)-c1cnnn1Cc1cc(-c3ccccc3)cc(n1)C2.[Pb+2] [TD876]
2. O=C1C[N@@]2CC[N@]3CC[N@@](CC[N@](CC2)Cc2cccc(n2)-c2cn(nn2)Cc2cc(-c4ccccc4)cc(n2)C3)CC(=O)[O][Cd][O]1 [TD900]
3. O=C([O-])CN1CCN2CCN(CC(=O)[O-])CCN(CC1)Cc1cccc(n1)-c1cnnn1Cc1cc(-c3ccccc3)cc(n1)C2.[Zn+2] [TD890]
4. O=C1C[N@@]2CC[N@]3CC[N@@](CC[N@](CC2)Cc2cccc(n2)-c2cnnn2Cc2cc(-c4ccccc4)cc(n2)C3)CC(=O)[O][Dy][O]1 [TD866]

1. 0
2. 0
3. 0
4. 99

----------
- PROTOCOL DESCRIPTION: Formation of 1,5-cz-[Ln(Lig)] from Lig and Ln^III ions (metal dependent click-zip), MOPS/NaOH buffer pH 7.0, analytical HPLC (Charts 1, 2)
- CONDITION NOTES: Er^III; after 1 hour at 80° C.; MOPS/NaOH buffer pH 7.0
// boundary case: conversion to 1,5-cz-[Ln(Lig)], Er^III equal to 10% maps to no; strictly smaller maps to yes

Reference set (5 entries):
{"columns": ["LINE NOTATION", "GROUP LABEL"],
 "data": [
  ["C#CCNC(=O)CN1CCN(CC(=O)O)CCN(Cc2cc(-c3ccccc3)cc(CN=[N+]=[N-])n2)CCN(CC(=O)O)CC1", "yes"],
  ["C#Cc1cccc(CN2CCN(CC(=O)O)CCN(Cc3cc(-c4ccccc4)cc(CN=[N+]=[N-])n3)CCN(CC(=O)O)CC2)n1", "no"],
  ["C#CCN(CC#C)CCN1CCN(CC(=O)O)CCN(Cc2cc(-c3ccccc3)cc(CN=[N+]=[N-])n2)CCN(CC(=O)O)CC1", "yes"],
  ["C#Cc1cccc(CN2CCN(CC(=O)O)CCN(Cc3cc(C(=O)OC(C)C)cc(CN=[N+]=[N-])n3)CCN(CC(=O)O)CC2)n1", "no"],
  ["C#Cc1cccc(CN2CCN(CC(=O)O)CCN(Cc3cccc(CN=[N+]=[N-])n3)CCN(CC(=O)O)CC2)n1", "no"]
]}

I wonder whether C#Cc1cccc(CN2CCN(CC(N)=O)CCN(Cc3cc(-c4ccccc4)cc(CN=[N+]=[N-])n3)CCN(CC(N)=O)CC2)n1 has conversion to 1,5-cz-[Ln(Lig)], Er^III below 10%. Can you tell?
no

I wonder whether C#Cc1cccc(CN2CCN(CC(=O)O)CCN(Cc3cc(C(=O)OC)cc(CN=[N+]=[N-])n3)CCN(CC(=O)O)CC2)n1 has conversion to 1,5-cz-[Ln(Lig)], Er^III below 10%. Can you tell?
no

----------
- PROTOCOL DESCRIPTION: Alkali metal dependent formation of 1,5-cz-Lig and 1,4-cz-Lig isomers from Lig at pH 10.2 (Chart 14)
- Format: physicochemical
- CONDITION NOTES: B: 1 day at 80° C.; Borate/(M^I)2CO3 buffer pH 10.2; visible analyte free precipitate
Hi there, I'd appreciate the recorded conversion to 1,4-cz-Lig isomer, Li^I for every entry that follows.
One number for each entry, in %.

{"columns": ["LINE NOTATION", "conversion to 1,4-cz-Lig isomer, Li^I, %"],
 "data": [
  ["C#Cc1cccc(CN2CCN(CP(=O)(O)OCC)CCN(Cc3cccc(CN=[N+]=[N-])n3)CCN(CP(=O)(O)OCC)CC2)n1", 3],
  ["C#Cc1cccc(CN2CCN(CP(=O)(O)O)CCN(Cc3cccc(CN=[N+]=[N-])n3)CCN(CP(=O)(O)O)CC2)n1", 19],
  ["C#Cc1cccc(CN2CCNCCN(Cc3cccc(CN=[N+]=[N-])n3)CCN(CC(=O)O)CC2)n1", 14]
]}

Consider the record given below.
Please report the measured conversion to 1,4-cz-Lig isomer, Li^I for C#CCNC(=O)CN1CCN(CC(=O)O)CCN(Cc2cc(-c3ccccc3)cc(CN=[N+]=[N-])n2)CCN(CC(=O)O)CC1
0

----------
- PROTOCOL DESCRIPTION: Formation of 1,5-cz-[Ln(Lig)] from Lig and Ln^III ions (metal dependent click-zip), MOPS/NaOH buffer pH 7.0, analytical HPLC (Charts 1, 2)
- CONDITION NOTES: Pr^III; after 1 hour at 80° C.; MOPS/NaOH buffer pH 7.0
MEASURED PROPERTY: conversion to 1,5-cz-[Ln(Lig)], Pr^III (%)
Give bare numbers, in %.

Worked cases, answers included:
{"columns": ["LINE NOTATION", "conversion to 1,5-cz-[Ln(Lig)], Pr^III (%)"],
 "data": [
  ["CC(C)(N)C#Cc1cccc(CN2CCN(CC(=O)O)CCN(Cc3cc(-c4ccccc4)cc(CN=[N+]=[N-])n3)CCN(CC(=O)O)CC2)n1", 0],
  ["C#Cc1cccc(CN2CCN(CC(=O)NCC(=O)O)CCN(Cc3cc(-c4ccccc4)cc(CN=[N+]=[N-])n3)CCN(CC(=O)NCC(=O)O)CC2)n1", 13]
]}

Consider the record given below.
Please report the measured conversion to 1,5-cz-[Ln(Lig)], Pr^III for CC(C)(C)C#Cc1cccc(CN2CCN(CC(=O)O)CCN(Cc3cccc(CN=[N+]=[N-])n3)CCN(CC(=O)O)CC2)n1
0
